test system: Danio rerio embryo; experiment: EC10 Bladder size_Decrease; higher = less potent; conditions: exposure time: 4 dpf
The following molecules are shown together with reported EC10 Bladder size Decrease values.

molecule	measured-on	EC10 Bladder size Decrease [µM]
CC(=O)Nc1ccc(O)cc1	Danio rerio embryo	1020
COc1cccc2c1C(=O)c1c(O)c3c(c(O)c1C2=O)C[C@@](O)(C(C)=O)C[C@@H]3O[C@H]1C[C@H](N)[C@H](O)[C@H](C)O1	Danio rerio embryo	9.82
C[Si](Cn1cncn1)(c1ccc(F)cc1)c1ccc(F)cc1	Danio rerio embryo	1.46
CC(C)(C)C(O)/C(=C/c1ccc(Cl)cc1Cl)n1cncn1 (configuration not stated)	Danio rerio embryo	1.71
C[C@@H]1C[C@H]2[C@@H]3CCC4=CC(=O)C=C[C@]4(C)[C@@]3(F)[C@@H](O)C[C@]2(C)[C@@]1(O)C(=O)CO	Danio rerio embryo	1.02
CCOC(=O)N1CCC(=C2c3ccc(Cl)cc3CCc3cccnc32)CC1	Danio rerio embryo	0.165
CC(=O)OCC(=O)[C@@]1(OC(C)=O)[C@@H](C)C[C@H]2[C@@H]3C[C@H](F)C4=CC(=O)C=C[C@]4(C)[C@@]3(F)[C@@H](O)C[C@@]21C [diflorasone diacetate]	Danio rerio embryo	0.037

These data points were gathered from the supplement of paper PMC9013687.
